tested on: SF3A1; assay: qRT-PCR splice modulation, SF3A1 intron retention in HCT116 cells; type: cell-based; settings: HCT116, 4 h, ~20 times GI50, relative to 1
Measured attribute: SF3A1 intron 6 retention

Molecule	Measured on	Measured attribute	Measurement
CC[C@H](OC)[C@@H](C)[C@H]1O[C@@H]1[C@H](O)[C@H](C)/C=C/C=C(\C)[C@H]1OC(=O)C[C@@H](O)CC[C@@](C)(O)[C@@H](OC(C)=O)/C=C/[C@@H]1C [Compound 1a, 3S-FD-895]	SF3A1	SF3A1 intron 6 retention	more effective than 1
CC[C@@H](OC)[C@H](C)[C@H]1O[C@@H]1[C@@H](O)[C@H](C)/C=C/C=C(\C)[C@H]1OC(=O)C[C@H](O)CC[C@@](C)(O)[C@@H](OC(C)=O)/C=C/[C@@H]1C [Compound 1j, 17S,20S,21R-FD-895]	SF3A1	SF3A1 intron 6 retention	more effective than 1

---

tested on: SF3A1; experiment: qRT-PCR splice modulation, SF3A1 intron retention in HCT116 cells; format: cell-based; conditions: HCT116, 4 h, ~20 times GI50, relative to 1

Compound	Measured on	SF3A1 intron 6 retention
CC[C@H](OC)[C@@H](C)[C@H]1O[C@@H]1[C@@H](OC)[C@H](C)/C=C/C=C(\C)[C@H]1OC(=O)C[C@H](O)CC[C@@](C)(O)[C@@H](OC(C)=O)/C=C/[C@@H]1C [Compound 1f, 17-methoxy-17S-FD-895]	SF3A1	more effective than 1
CC[C@H](OC)[C@@H](C)[C@H]1O[C@@H]1[C@H](OC)[C@H](C)/C=C/C=C(\C)[C@H]1OC(=O)C[C@H](O)CC[C@@](C)(O)[C@@H](OC(C)=O)/C=C/[C@@H]1C [Compound 1e, 17-methoxy-FD-895]	SF3A1	more effective than 1
CC[C@H](OC)[C@@H](C)[C@@H]1O[C@H]1[C@@H](O)[C@H](C)/C=C/C=C(\C)[C@H]1OC(=O)C[C@H](O)CC[C@@](C)(O)[C@@H](OC(C)=O)/C=C/[C@@H]1C [Compound 1i, 17S,18S,19S-FD-895]	SF3A1	more effective than 1
